experiment: Tmax in BALB/c mouse at 100 mg/kg, po administered as single dose; assay type: ADME, organism-based; design: dose 100 mg/kg, route oral; conditions: in vivo
Metric: Tmax (h)

>  <Compound>
COc1cc2nc(N3CCC(N4CCCC(CO)C4)CC3)nc(Nc3ccc(Cl)cc3)c2cc1OC (stereo unspecified)

>  <Units label>
h

>  <Endpoint value>
2

$$$$

---

assay: Tmax in BALB/c mouse at 30 mg/kg, po administered as single dose; type: ADME, organism-based; parameters: dose 30 mg/kg, route oral; settings: in vivo

>  <Compound>
COc1cc2nc(N3CCC(N4CCCC(CO)C4)CC3)nc(Nc3ccc(Cl)cc3)c2cc1OC (stereo unspecified)

>  <Units label>
h

>  <Tmax>
2

$$$$

---

target: C-C chemokine receptor type 4 (Homo sapiens); assay: Antagonist activity at human CCR4 receptor expressed in mouse B300-19 cells assessed as CCL22-induced [35S]GTPgammaS binding at 1 uM; format: functional, cell-based
Answer f if inhibition is under 10%, and t if it is 10% or more.

>  <Compound>
COc1cc2nc(N3CCC(N4CCCC(CO)C4)CC3)nc(NC3CCS(=O)(=O)CC3)c2cc1OC (stereo not given)

>  <Category>
f

$$$$
>  <Compound>
COc1cc2nc(N3CCC(N4CCCC(CO)C4)CC3)nc(N3CCc4cc(Cl)ccc43)c2cc1OC (stereo not given)

>  <Category>
t

$$$$
>  <Compound>
COc1cc2nc(N3CCC(N4CCCC(CO)C4)CC3)nc(NC(=O)c3ccc(Cl)cc3)c2cc1OC (stereo not given)

>  <Category>
t

$$$$
>  <Compound>
COc1cc2nc(N3CCC(N4CCCC(CO)C4)CC3)nc(NC3CCOCC3)c2cc1OC (stereo not given)

>  <Category>
f

$$$$
>  <Compound>
COc1cc2nc(N3CCC(N4CCCC(CO)C4)CC3)nc(NS(=O)(=O)c3ccc(Cl)cc3)c2cc1OC (stereo not given)

>  <Category>
f

$$$$

---

assay: Cmax in BALB/c mouse at 100 mg/kg, po administered as single dose; assay type: ADME, organism-based; set-up: dose 100 mg/kg, route oral; details: in vivo

>  <Compound>
COc1cc2nc(N3CCC(N4CCCC(CO)C4)CC3)nc(Nc3ccc(Cl)cc3)c2cc1OC (stereo unspecified)

>  <Cmax>
262 ng/mL

$$$$
